Cited source: PubChem BioAssay (NCI)

- Tested on: A549/ATCC NSCLC
- Protocol Description: NCI-60 one-dose screen, 48 h (100 = growth as untreated, 0 = no growth, -100 = all killed)
- Experimental Conditions: 10 µM
Compounds without any hit were thinned out: in the full panel of roughly 83,000, 20% have a hit.
Each item that follows carries a reported growth.

Sample Smiles | growth / %
CC(=O)Nc1ccc(S(=O)(=O)c2ccnc3cc(Cl)ccc23)cc1 | 85.3
CCOC(=O)c1cc(C(=O)c2cc(OC)c(OC)c(OC)c2)n2ncc3ccccc3c12 | 54.8
Cc1c2c(nn1C(=O)c1nn(-c3ccc(Cl)cc3)cc1O)-c1ccccc1CC2 | 21.8
CCN1CCN(CCC(=O)Nc2cccc(-n3cc(-c4ccncc4)c(-c4ccc(Cl)c(OC)c4)n3)c2)CC1 | 8.56
COc1cc(-c2nn(-c3cccc(NC(=O)CCN4CCN(c5ccccc5)CC4)c3)cc2-c2ccncc2)ccc1Cl | 15.9
N#Cc1c(-c2ccc(Cl)cc2)cc(-c2cc(O)ccc2O)nc1N | 40

----------
- Tested on: OVCAR-3 ovarian
- Protocol Description: NCI-60 one-dose screen, 48 h (100 = growth as untreated, 0 = no growth, -100 = all killed)
- Experimental Conditions: 10 µM
Compounds without any hit were thinned out: in the full panel of roughly 83,000, 20% have a hit.
Param label: returns Met when growth < 80%, returns Not met otherwise, including exact equality.

Compound | Tested Target | Qualitative Label
Cc1ccc(C2NC(=S)N3C(c4ccc(C)cc4)NC(=S)N23)cc1 (centres undefined) | OVCAR-3 ovarian | Met
O=C1c2ccccc2C(=O)c2c1ccc(C(Br)Br)c2Cl | OVCAR-3 ovarian | Met
COc1ccc2c(c1)C(=O)/C(=C/c1cccc(OCC(=O)c3ccc([N+](=O)[O-])cc3)c1)CO2 | OVCAR-3 ovarian | Met
C=CCN(CC=C)C(=O)[C@H](CC)[C@@H]1CC[C@@H](C)[C@@H]([C@H](C)[C@@H](O)[C@@H](C)C(=O)[C@H](CC)C2O[C@]3(C=CC(=O)[C@]4(CC[C@@](C)([C@H]5CC[C@](O)(CC)[C@H](C)O5)O4)O3)[C@H](C)C[C@@H]2C)O1 (some centres undefined) | OVCAR-3 ovarian | Met
COc1ccc(Cc2cnc(N)nc2N)cc1OC | OVCAR-3 ovarian | Not met
CSc1nc(S(C)(=O)=O)nc2[nH]c(=O)[nH]c12 | OVCAR-3 ovarian | Not met
CC(C)CCN(CCC(C)C)CC(=O)Nc1ccc(S(=O)(=O)c2ccc(NC(=O)CN(CCC(C)C)CCC(C)C)cc2)cc1 | OVCAR-3 ovarian | Met
Cc1c2cnccc2c(C)c2c1oc1ccccc12 | OVCAR-3 ovarian | Not met
COc1ccc(-c2n[nH]nc2-c2cc(OC)c(OC)c(OC)c2)cc1 | OVCAR-3 ovarian | Met
O=C(Nc1cc(Cl)cc2c1-c1ccc(Cl)cc1C2O)C(Cl)Cl (centres undefined) | OVCAR-3 ovarian | Not met
Cc1cc(Cl)ccc1Nc1nc(C(F)(F)F)ccc1C(=O)N/N=C/c1c(Cl)cccc1Cl | OVCAR-3 ovarian | Met
CCc1ccc(C2=NN(c3ccc(S(C)(=O)=O)cc3)C(=O)CC2)cc1 | OVCAR-3 ovarian | Met
CC(C)(C)OC(=O)CN1CCc2c(sc3ncnc(N/N=C/c4cccc5ccccc45)c23)C1 | OVCAR-3 ovarian | Met
C#CC(C)(O)[C@@H]1C[C@H](CC(=O)O)C1(C)C (some centres undefined) | OVCAR-3 ovarian | Not met
CCOC(=O)c1cc(C(=O)c2ccc(OC)c(OC)c2)n2ccncc12 | OVCAR-3 ovarian | Not met
C[C@]12CC[C@@H]3c4ccc(O)cc4CC[C@H]3[C@@H]1CC[C@@H]2NS(=O)(=O)c1ccc(C(F)(F)F)cc1 | OVCAR-3 ovarian | Met
Nc1c(Br)cc(Br)c2c1[nH]c(=O)c1ccccc12 | OVCAR-3 ovarian | Met
CC[C@H]1OC(=O)[C@H](C)[C@@H](O[C@H]2C[C@@](C)(OC)[C@@H](O)[C@H](C)O2)[C@H](C)[C@@H](O[C@@H]2O[C@H](C)C[C@H](N(C)C)[C@H]2O)[C@](C)(OC)C/C(C)=C2/O[C@@]1(C)C=C2C | OVCAR-3 ovarian | Met
